Test system: HEPG2
Test: Euclidean distance of Cell Painting phenotypic profile (signed KS, 77 features) to DMSO centroid (dimensionless distance); 5 or 10 uM (library dependent); higher = stronger phenotypic change vs DMSO (phenoactivity)
Settings: 48 h
Values of Euclidean distance greater than or equal to 0.6 map to t; values below map to f.

Consider the following illustrative entries.
compound	class name
CC1(C)S[C@@H]2[C@H](NC(=O)Cc3ccccc3)C(=O)N2[C@H]1C(=O)O.CCN(CC)CCOC(=O)c1ccc(N)cc1	f
O=C(NCCN1CCOCC1)c1ccc(Cl)cc1	f
O=C(OCc1ccccc1)c1ccccc1 [Benzyl benzoate]	t

Reported Euclidean distance at or above 0.6? CCCCc1nc2cc(/C=C/C(=O)NO)ccc2n1CCN(CC)CC [Pracinostat (SB939)]
t

Queued: COc1ccc(C(Cl)=C(c2ccc(OC)cc2)c2ccc(OC)cc2)cc1
t

Queued: NC(=O)c1ncn([C@@H]2O[C@H](CO)[C@@H](O)[C@H]2O)n1
t

Queued: C[n+]1c2ccccc2nc2ccccc21 [Phenazine methosulfate]
t

----------
Tested on: A549
Assay: Euclidean distance of Cell Painting phenotypic profile (signed KS, 77 features) to DMSO centroid (dimensionless distance); 5 or 10 uM (library dependent); higher = stronger phenotypic change vs DMSO (phenoactivity)
Details: 48 h
Where a name gives a salt, the structure may show the parent alone.
quantity name: Euclidean distance
Hey, just send me the number, nothing else.

Example entries begin here.
compound	measured on	Euclidean distance
Cc1coc2c1C(=O)C(=O)c1c-2ccc2c1CCCC2(C)C [Tanshinone IIA]	A549	2.73
CN(C)C/C=C/C(=O)Nc1cc2c(Nc3ccc(F)c(Cl)c3)ncnc2cc1O[C@H]1CCOC1 [Afatinib (BIBW2992) Dimaleate]	A549	3.63
COc1cc2c(cc1OC)[C@@H](Cc1cc(OC)c(OC)c(OC)c1)[N+](C)(CCCOC(=O)CC/C=C/CCC(=O)OCCC[N+]1(C)CCc3cc(OC)c(OC)cc3[C@H]1Cc1cc(OC)c(OC)c(OC)c1)CC2 (stereo not given in full) [Mivacurium chloride]	A549	1

Euclidean distance for CCC(=O)NCC[C@@H]1CCc2ccc3c(c21)CCO3 [Ramelteon] ?
0.978

Queued: CN(C)CCCN1c2ccccc2Sc2ccc(C(F)(F)F)cc21 [Triflupromazine hydrochloride]
1.63

Queued: COc1cc2nccc(Oc3ccc(NC(=O)C4(C(=O)Nc5ccc(F)cc5)CC4)cc3)c2cc1OC [Cabozantinib malate (XL184)]
2.98

Queued: NCCc1c[nH]cn1 [Histamine Phosphate]
0.956

Queued: CC(C)c1nc(CN(C)C(=O)N[C@@H](CCN2CCOCC2)C(=O)N[C@H](CC[C@H](Cc2ccccc2)NC(=O)OCc2cncs2)Cc2ccccc2)cs1 [Cobicistat (GS-9350)]
2.31

Queued: CS(=O)(=O)N1CCc2c(-c3cnc(N)nc3)nc(N3CCOCC3)nc21
2.54

Queued: Nc1cc(F)ccc1NC(=O)c1ccc(CNC(=O)/C=C/c2cccnc2)cc1 [Tucidinostat (Chidamide)]
2.59

Queued: CN(C)c1cc(NC(=O)CNC(C)(C)C)c(O)c2c1C[C@H]1C[C@H]3[C@H](N(C)C)C(O)=C(C(N)=O)C(=O)[C@@]3(O)C(O)=C1C2=O [Tigecycline]
0.996

----------
Test system: 786-O
Test: Euclidean distance of Cell Painting phenotypic profile (signed KS, 77 features) to DMSO centroid (dimensionless distance); 5 or 10 uM (library dependent); higher = stronger phenotypic change vs DMSO (phenoactivity)
Conditions: 48 h
Structures can show the parent of a compound that is named as a salt.
quantity name: Euclidean distance
Hey, just send me the number, nothing else.

compound	reported
CC(C)=CCC/C(C)=C/CC/C(C)=C/CC/C(C)=C/CC/C(C)=C/CC/C(C)=C/CC1=C(C)C(=O)c2ccccc2C1=O [Vitamin K2]	1.17

Euclidean distance for Clc1ccc(COC(Cn2ccnc2)c2ccc(Cl)cc2Cl)cc1 (configuration not stated) [Econazole] ?
1.06

Queued: CO/N=C(\C(=O)N[C@@H]1C(=O)N2C(C(=O)[O-])=C(C[N+]3(C)CCCC3)CS[C@H]12)c1csc(N)n1 [Cefepime Dihydrochloride Monohydrate]
1.34

Queued: CC1(C)S[C@@H]2[C@H](NC(=O)[C@H](N)c3ccccc3)C(=O)N2[C@H]1C(=O)OCOC(=O)[C@@H]1N2C(=O)C[C@H]2S(=O)(=O)C1(C)C [Sultamicillin Tosylate]
1.06

Queued: NC(=O)C(c1ccccc1)(c1ccccc1)[C@@H]1CCN(CCc2ccc3c(c2)CCO3)C1 [Darifenacin HBr]
1.59

Queued: CN(Cc1cnc2nc(N)nc(N)c2n1)c1ccc(C(=O)N[C@@H](CCC(=O)O)C(=O)O)cc1 [Methotrexate]
1.77

Queued: CN1CCN2c3ccccc3Cc3ccccc3C2C1 (configuration not stated) [Mianserin HCl]
2.29
